Data credit: patent US20230416363A1

measurement.target: T1, hPD-1-his (human, UniProt Q15116 25-167)
T1 construct: domain: IgV domain; monomer in solution; biotin-labelled where captured by streptavidin; also called biotin-hPD-1-his
T1 sequence (Q15116 other isoform, or with tags, fused parts or gaps limits assumed): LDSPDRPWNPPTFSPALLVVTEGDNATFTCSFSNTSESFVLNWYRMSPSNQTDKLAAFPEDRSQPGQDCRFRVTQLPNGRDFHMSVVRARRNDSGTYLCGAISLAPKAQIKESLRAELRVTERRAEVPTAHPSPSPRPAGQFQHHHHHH
assay.summary: SPR Biacore T200, PD-1-his immobilised
metric: Kd (nM)
Give bare numbers, in nM.

binder	units.of.measure	Kd
38A11 (antibody, V domains shown) VH: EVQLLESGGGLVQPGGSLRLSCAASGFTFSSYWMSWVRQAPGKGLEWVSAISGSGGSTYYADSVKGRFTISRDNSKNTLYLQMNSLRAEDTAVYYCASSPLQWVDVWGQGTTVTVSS VL: DIQMTQSPSSLSASVGDRVTITCRASQSISSWLAWYQQKPGKAPKLLIYDASTLQSGVPSRFSGSGSGTDFTLTISSLQPEDFATYYCQQGNSFPFTFGPGTKVDIK	nM	4.93

Consider now this further binder.
Req: Value lookup for Kd; key = 32D11 (antibody, V domains shown) VH: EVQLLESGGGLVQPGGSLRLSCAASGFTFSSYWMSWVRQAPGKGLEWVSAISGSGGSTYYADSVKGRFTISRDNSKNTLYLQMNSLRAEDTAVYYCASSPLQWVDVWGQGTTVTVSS VL: DIQMTQSPSSLSASVGDRVTITCRASQSINIWLAWYQQKPGKAPKLLIYDASNLETGVPSRFSGSGSGTDFTLTISSLQPEDFATYYCQQGYSFPFTFGPGTKVDIK
Resp: 1.44
